Test system: MOLT-4 (acute lymphoblastic leukemia)
PROCEDURE DETAILS: MTT proliferation assay, MOLT-4 cells
Format: cell-based
PARTICULARS: Homo sapiens, 72 hours incubation, read-out: IC50 (concentration that causes 50% growth inhibition), MOLT-4
QUANTITY MEASURED: IC50 (nM)

I: O=C(CC12CC3CC(CC(C3)C1)C2)N1CCOCCOCCN(C(=O)CC23CC4CC(CC(C4)C2)C3)CCOCCOCC1
II: O=C(CCC12CC3CC(CC(C3)C1)C2)N1CCOCCOCCN(C(=O)CCC23CC4CC(CC(C4)C2)C3)CCOCCOCC1
III: C(CN1CCOCCOCCN(CCCC23CC4CC(CC(C4)C2)C3)CCOCCOCC1)CC12CC3CC(CC(C3)C1)C2
Hello, I need these entries ordered by IC50, highest reading first. Thanks! // rank by listing labels in the order requested
I, II, III

Data provenance is patent US8389505B2.
